Reference source for all entries: ChEMBL document CHEMBL3616445

The entries below are paired with their reported pKi.
Molecular target: B2 bradykinin receptor (Rattus norvegicus, UniProt P25023)
Sequence (P25023 whole entry): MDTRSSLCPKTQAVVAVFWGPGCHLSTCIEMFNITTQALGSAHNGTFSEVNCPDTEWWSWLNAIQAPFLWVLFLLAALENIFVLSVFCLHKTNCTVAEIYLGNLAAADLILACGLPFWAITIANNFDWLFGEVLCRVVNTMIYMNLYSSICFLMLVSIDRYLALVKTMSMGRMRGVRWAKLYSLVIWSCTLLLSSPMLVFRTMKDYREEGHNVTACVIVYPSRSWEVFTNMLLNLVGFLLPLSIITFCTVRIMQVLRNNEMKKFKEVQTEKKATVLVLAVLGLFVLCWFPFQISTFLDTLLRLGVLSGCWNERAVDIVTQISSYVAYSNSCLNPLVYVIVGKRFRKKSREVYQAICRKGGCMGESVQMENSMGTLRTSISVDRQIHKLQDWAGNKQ
pKi: −log10 of the molar value.

CHEM SMILES	pKi
C[C@@H](NC(=O)[C@@H](N)Cc1ccc(O)cc1)C(=O)NCC(=O)N[C@@H](Cc1ccccc1)C(=O)N[C@H](CCCNC(=N)N)C(=O)N[C@@H](CCCNC(=N)N)C(=O)N1CCC[C@H]1C(=O)N1C[C@H](O)C[C@H]1C(=O)NCC(=O)N[C@@H](Cc1cccs1)C(=O)N[C@@H](CO)C(=O)N1Cc2ccccc2C[C@@H]1C(=O)N1[C@H](C(=O)N[C@@H](CCCNC(=N)N)C(=O)O)C[C@@H]2CCCC[C@@H]21	< 5.00
NC(N)=NCCC[C@@H](N)C(=O)N[C@@H](CCCN=C(N)N)C(=O)N1CCC[C@H]1C(=O)N1C[C@H](O)C[C@H]1C(=O)NCC(=O)N[C@@H](Cc1cccs1)C(=O)N[C@@H](CO)C(=O)N1Cc2ccccc2C[C@@H]1C(=O)N1[C@H](C(=O)N[C@@H](CCCN=C(N)N)C(=O)O)C[C@@H]2CCCC[C@@H]21	< 5.00

Next, consider the following compound.
Test item `N=C(N)NCCC[C@H](NC(=O)[C@@H]1C[C@@H]2CCCC[C@@H]2N1C(=O)[C@H]1Cc2ccccc2CN1C(=O)[C@H](CO)NC(=O)[C@H](Cc1cccs1)NC(=O)CNC(=O)[C@@H]1C[C@@H](O)CN1C(=O)[C@@H]1CCCN1C(=O)[C@H](CCCNC(=N)N)NC(=O)[C@@H](CCCNC(=N)N)NC(=O)[C@H](Cc1ccccc1)NC(=O)[C@@H]1CCCN1C(=O)[C@@H](N)Cc1ccc(O)cc1)C(=O)O` ; B2 bradykinin receptor (Rattus norvegicus, UniProt P25023); reported pKi was < 5.00

###

// Ki collected for Mu-type opioid receptor (Rattus norvegicus, UniProt P33535)

Consider the following illustrative entries.
CHEM SMILES	TESTED ON	Ki
C[C@@H](NC(=O)[C@@H](N)Cc1ccc(O)cc1)C(=O)NCC(=O)N[C@@H](Cc1ccccc1)C(=O)NCCCCCCCC(=O)NC[C@H](N)C(=O)N[C@H](CCCNC(=N)N)C(=O)N[C@@H](CCCNC(=N)N)C(=O)N1CCC[C@H]1C(=O)N1C[C@H](O)C[C@H]1C(=O)NCC(=O)N[C@@H](Cc1cccs1)C(=O)N[C@@H](CO)C(=O)N1Cc2ccccc2C[C@@H]1C(=O)N1[C@H](C(=O)N[C@@H](CCCNC(=N)N)C(=O)O)C[C@@H]2CCCC[C@@H]21	Mu-type opioid receptor (Rattus norvegicus, UniProt P33535)	0.3 nM
C[C@@H](NC(=O)[C@@H](N)Cc1ccc(O)cc1)C(=O)NCC(=O)N[C@@H](Cc1ccccc1)C(=O)NC[C@H](N)C(=O)NCCC(=O)N[C@H](CCCNC(=N)N)C(=O)N[C@@H](CCCNC(=N)N)C(=O)N1CCC[C@H]1C(=O)N1C[C@H](O)C[C@H]1C(=O)NCC(=O)N[C@@H](Cc1cccs1)C(=O)N[C@@H](CO)C(=O)N1Cc2ccccc2C[C@@H]1C(=O)N1[C@H](C(=O)N[C@@H](CCCNC(=N)N)C(=O)O)C[C@@H]2CCCC[C@@H]21	Mu-type opioid receptor (Rattus norvegicus, UniProt P33535)	0.5 nM
N=C(N)NCCC[C@H](NC(=O)[C@@H]1C[C@@H]2CCCC[C@@H]2N1C(=O)[C@H]1Cc2ccccc2CN1C(=O)[C@H](CO)NC(=O)[C@H](Cc1cccs1)NC(=O)CNC(=O)[C@@H]1C[C@@H](O)CN1C(=O)[C@@H]1CCCN1C(=O)[C@H](CCCNC(=N)N)NC(=O)[C@@H](CCCNC(=N)N)NC(=O)[C@H](Cc1ccccc1)NC(=O)[C@H](Cc1ccccc1)NC(=O)[C@@H]1CCCN1C(=O)[C@@H](N)Cc1ccc(O)cc1)C(=O)O	Mu-type opioid receptor (Rattus norvegicus, UniProt P33535)	480 nM

Next, consider the following compound.
Test item `CSCC[C@H](NC(=O)[C@H](Cc1ccccc1)NC(=O)[C@@H](C)NC(=O)[C@@H](N)Cc1ccc(O)cc1)C(=O)N[C@H](CCCNC(=N)N)C(=O)N[C@@H](CCCNC(=N)N)C(=O)N1CCC[C@H]1C(=O)N1C[C@H](O)C[C@H]1C(=O)NCC(=O)N[C@@H](Cc1cccs1)C(=O)N[C@@H](CO)C(=O)N1Cc2ccccc2C[C@@H]1C(=O)N1[C@H](C(=O)N[C@@H](CCCNC(=N)N)C(=O)O)C[C@@H]2CCCC[C@@H]21` ; Mu-type opioid receptor (Rattus norvegicus, UniProt P33535); reported Ki was 70 nM
